Experiment: MTT viability / metabolic activity assay
Type: cell-based, human
Settings: human; 10 µg/mL, 24 h, control = 100%; read-out: viability of HaCaT cells
Peptide text beside a SMILES is read from it. * marks the point of attachment. RhodamineB = CCN(CC)c1ccc2c(-c3ccccc3C(=O)*)c3ccc(=[N+](CC)CC)cc-3oc2c1
Attribute measured: viability at 24 h, 10 µg/mL (%)
Answers are plain numbers, in %.

The reported viability at 24 h, 10 µg/mL of the compound CCN(CC)c1ccc2c(-c3ccccc3C(=O)N[C@@H](CCC(N)=O)C(=O)N[C@@H](CCCNC(=N)N)C(=O)N[C@@H](CC(C)C)C(=O)N[C@@H](Cc3ccccc3)C(=O)N[C@@H](CCC(N)=O)C(=O)N[C@H](C(=O)N[C@@H](CCCCN)C(=O)NCC(=O)N[C@@H](CCCNC(=N)N)C(=O)N[C@@H](CCCNC(=N)N)C(=O)N[C@@H](CS)C(=O)O)C(C)C)c3ccc(=[N+](CC)CC)cc-3oc2c1 [RhB-PBP10-Cys] (RhodamineB-QRLFQVKGRRC-OH; N-terminus and C-terminus assumed) was 80

====

Experiment: MTT viability / metabolic activity assay
Format: cell-based, human
Conditions: human
Ends that are not written are not given here.
Attribute measured: viability at 24 h, 10 µg/mL

The reported viability at 24 h, 10 µg/mL of the sequence QRLFQVKGRR [PBP10, QRLFQVKGRR] was 83 to 101%

Reference source for all entries: paper PMC6359803
